# target system: AsPC-1 HiBiT-KRASG12D (Homo sapiens, UniProt P01116, G12D)
# Construct: insert the HiBiT tag onto the N-terminus of one or more of the endogenous KRAS alleles; endogenous in cells; host or cells: AsPC-1 (ATCC CRL-1682), CRISPR-Cas9 knock-in clone, one tagged allele
# Sequence (P01116 1-188 isoform P01116-2 G12D): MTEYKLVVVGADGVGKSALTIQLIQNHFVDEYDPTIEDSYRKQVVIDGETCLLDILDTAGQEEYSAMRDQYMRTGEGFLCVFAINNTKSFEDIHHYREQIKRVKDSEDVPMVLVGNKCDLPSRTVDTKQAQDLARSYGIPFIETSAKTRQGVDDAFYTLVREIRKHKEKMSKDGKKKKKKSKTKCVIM
# protocol notes: HiBiT degradation assay (G12D), AsPC-1 HiBiT-KRASG12D cells
# Type: cell-based
# condition info: ASPC1, AsPC-1 HiBiT-KRASG12D cells, 24 hours treatment, maximum degradation observed
Entries and their Dmax

Some solved entries appear below for comparison.
compound=CCc1cccc2cc(O)cc(-c3ncc4c(N5CC6CCC(C5)N6)nc(OC[C@]56CCCN5[C@@H](COC(=O)NCc5cc([C@H](C(=O)N7C[C@H](O)C[C@H]7C(=O)N[C@@H](C)c7ccc(-c8scnc8C)cc7)C(C)C)on5)CC6)nc4c3F)c12 target_system="AsPC-1 HiBiT-KRASG12D (Homo sapiens, UniProt P01116, G12D)" readout_name=Dmax result="80 to 100%"
compound=CCc1cccc2cc(O)cc(-c3ncc4c(N5CC6CCC(C5)N6)nc(OC[C@@]56CCCN5[C@H](COC(=O)N5CC(COc7cc([C@H](C(=O)N8C[C@H](O)C[C@H]8C(=O)N[C@@H](C)c8ccc(-c9scnc9C)cc8)C(C)C)on7)C5)CC6)nc4c3F)c12 target_system="AsPC-1 HiBiT-KRASG12D (Homo sapiens, UniProt P01116, G12D)" readout_name=Dmax result="80 to 100%"
compound="CCc1cccc2cc(O)cc(-c3ncc4c(N5CCCCCC5)nc(OC[C@]56CCCN5[C@H](COC(=O)N5CCN(c7cc([C@H](C(=O)N8C[C@H](O)C[C@H]8C(=O)N[C@@H](C)c8ccc(-c9scnc9C)cc8)C(C)C)on7)CC5)CC6)nc4c3F)c12 (relative stereo)" target_system="AsPC-1 HiBiT-KRASG12D (Homo sapiens, UniProt P01116, G12D)" readout_name=Dmax result="80 to 100%"

Turning now to a further record.
For AsPC-1 HiBiT-KRASG12D (Homo sapiens, UniProt P01116, G12D), give the measured Dmax of the entry CCc1cccc2cc(O)cc(-c3ncc4c(N5CC6CCC(C5)N6)nc(OCCN5CCC(C6CN(c7cc([C@@H](C(=O)N8C[C@H](O)C[C@H]8C(=O)N[C@@H](C)c8ccc(-c9scnc9C)cc8)C(C)C)on7)C6)CC5)nc4c3F)c12 (single isomer, unassigned)
20 to 60%

* * *

# key: entry, value: Dmax
# target system: AsPC-1 HiBiT-KRASG12D (Homo sapiens, UniProt P01116, G12D)
# Construct: insert the HiBiT tag onto the N-terminus of one or more of the endogenous KRAS alleles; endogenous in cells; host or cells: AsPC-1 (ATCC CRL-1682), CRISPR-Cas9 knock-in clone, one tagged allele
# protocol notes: HiBiT degradation assay (G12D), AsPC-1 HiBiT-KRASG12D cells
# Type: cell-based
# condition info: ASPC1, AsPC-1 HiBiT-KRASG12D cells, 24 hours treatment, maximum degradation observed

# annotated cases, reported Dmax shown
molecule="C#Cc1c(F)ccc2cc(O)cc(-c3ncc4c(N5CC6CCC(C5)N6)nc(OCCN5CCC(CCC6CN(c7cc([C@H](C(=O)N8C[C@H](O)C[C@H]8C(=O)N[C@@H](C)c8ccc(-c9scnc9C)cc8)C(C)C)on7)C6)CC5)nc4c3F)c12 [Compound 184]" result="80 to 100%"
molecule="CCc1cccc2cc(O)cc(-c3ncc4c(N5CC6CCC(C5)N6)nc(O[C@H](C)CN5CCC(COc6cc([C@H](C(=O)N7C[C@H](O)C[C@H]7C(=O)N[C@@H](C)c7ccc(-c8scnc8C)cc7)C(C)C)on6)CC5)nc4c3F)c12 [Compound 101]" result="60 to 80%"
molecule="Cc1ncsc1-c1ccc([C@H](C)NC(=O)[C@@H]2C[C@@H](O)CN2C(=O)[C@@H](c2cc(OC[C@@H]3CC[C@]4(COc5nc(N6CC7CCC(C6)N7)c6cnc(-c7cccc8ccc(F)c(F)c78)c(F)c6n5)CCCN34)no2)C(C)C)cc1 [Compound 61]" result="80 to 100%"

Next molecule, Dmax to be filled in.
Please indicate Dmax recorded for CCc1cccc2cc(O)cc(-c3ncc4c(N5CC6CCC(C5)N6)nc(O[C@H](C)CN5CCC6(CC5)CN(c5cc([C@H](C(=O)N7C[C@H](O)C[C@H]7C(=O)N[C@@H](C)c7ccc(-c8scnc8C)cc7)C(C)C)on5)C6)nc4c3F)c12 [Compound 25]
20 to 60%
